test: Solubility of compound (6) in water and PBS; type: physicochemical; conditions: phosphate buffered saline (PBS), aqueous buffer; read-out: solubility in phosphate buffered saline (PBS)
MEASURED_ATTRIBUTE: solubility (µg/mL)

> print(dat)
                      smiles.representation  measured.attribute  reading.unit  readout.value
1  CC(C)c1cccc(C(C)C)c1OC(=O)OC[C@H](N)C(=O)O.Cl          solubility         µg/mL           8180

====

test: Solubility of compound (6) in water and PBS; format: physicochemical; details: water; read-out: solubility in water
MEASURED_ATTRIBUTE: solubility

> print(dat)
                                   compound  measured.attribute  readout.value
1  CC(C)c1cccc(C(C)C)c1OC(=O)OC[C@H](N)C(=O)O.Cl [compound (6)]          solubility     7580 µg/mL
